So I've got a bunch of molecules here, and I need their logD values.
- protocol-description: Distribution coefficient, logD of compound in n-Octanol/water at pH 7.4
- Type: physicochemical

CNC(=O)c1ccccc1Nc1nc(Nc2ccc(N3CCN(C)CC3)cc2)ncc1Cl = 3.1
CNC(=O)c1ccccc1Nc1nc(Nc2ccc(N3CCN(CCOC(=O)CCCc4ccc(N(CCCl)CCCl)cc4)CC3)cc2)ncc1C(F)(F)F = 6.06
CNC(=O)c1ccccc1Nc1nc(Nc2ccc(N3CCOCC3)cc2OC)ncc1Cl = 3.49

Now consider the entry below.
Recorded logD (molecule CNC(=O)c1ccccc1Nc1nc(Nc2ccc(N3CCN(CCOC(=O)c4ccc(N(CCCl)CCCl)cc4)CC3)cc2)ncc1C(F)(F)F ): 5.34

====

- system-name: Focal adhesion kinase 1 (Homo sapiens)
- protocol-description: Inhibition of FAK (unknown origin) at 10 nM relative to control
- Sequence (Q05397 2-1052 limits assumed): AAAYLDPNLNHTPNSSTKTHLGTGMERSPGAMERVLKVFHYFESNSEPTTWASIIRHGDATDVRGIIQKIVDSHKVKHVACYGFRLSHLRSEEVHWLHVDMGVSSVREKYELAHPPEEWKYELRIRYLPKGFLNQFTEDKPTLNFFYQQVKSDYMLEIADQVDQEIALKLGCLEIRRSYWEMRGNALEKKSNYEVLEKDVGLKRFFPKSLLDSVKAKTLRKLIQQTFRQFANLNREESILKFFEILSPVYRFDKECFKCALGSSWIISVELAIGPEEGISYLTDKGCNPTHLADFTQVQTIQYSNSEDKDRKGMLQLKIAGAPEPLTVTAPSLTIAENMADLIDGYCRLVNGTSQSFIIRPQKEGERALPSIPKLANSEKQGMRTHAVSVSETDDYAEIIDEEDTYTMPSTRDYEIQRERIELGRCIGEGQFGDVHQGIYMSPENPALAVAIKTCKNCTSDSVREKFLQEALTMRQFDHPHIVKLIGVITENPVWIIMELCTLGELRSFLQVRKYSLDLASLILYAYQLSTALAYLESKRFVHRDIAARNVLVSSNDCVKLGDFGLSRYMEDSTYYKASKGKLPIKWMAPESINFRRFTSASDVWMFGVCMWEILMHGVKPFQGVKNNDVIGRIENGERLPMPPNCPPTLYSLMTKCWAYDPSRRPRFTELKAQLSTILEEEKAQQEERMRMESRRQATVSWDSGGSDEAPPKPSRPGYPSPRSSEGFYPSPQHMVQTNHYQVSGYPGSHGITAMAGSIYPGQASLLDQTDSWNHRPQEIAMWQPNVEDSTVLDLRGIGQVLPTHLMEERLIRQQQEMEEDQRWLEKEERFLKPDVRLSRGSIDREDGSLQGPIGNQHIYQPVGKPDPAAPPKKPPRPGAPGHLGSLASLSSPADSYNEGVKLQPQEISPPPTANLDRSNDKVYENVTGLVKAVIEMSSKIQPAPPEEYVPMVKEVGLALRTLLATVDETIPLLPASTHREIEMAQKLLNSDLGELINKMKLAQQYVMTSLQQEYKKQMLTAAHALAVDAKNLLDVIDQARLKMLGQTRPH
quantity: inhibition (%)
One number for each entry, in %.

These solved cases illustrate the format of a correct answer.
CNC(=O)c1ccccc1Nc1nc(Nc2ccc(C3CCN(C(=O)c4ccc(N(CCCl)CCCl)cc4)CC3)cc2)ncc1Cl = 34
CNC(=O)c1ccccc1Nc1nc(Nc2ccc(N3CCN(CCOC(=O)c4ccc(N(CCCl)CCCl)cc4)CC3)cc2)ncc1Cl = 51.9
CNC(=O)c1ccccc1Nc1nc(Nc2ccc(N3CCN(C(=O)c4ccc(N(CCCl)CCCl)cc4)CC3)cc2)ncc1Cl = 55.8

Now consider the entry below.
Recorded inhibition (compound CNC(=O)c1ccccc1Nc1nc(Nc2ccc(N3CCN(CCOC(=O)CCCc4ccc(N(CCCl)CCCl)cc4)CC3)cc2)ncc1Br ): 68.4

====

- protocol-description: Selectivity ratio of IC50 for cytotoxicity against human LO2 assessed as cell viability to IC50 for antiproliferative activity against human U-87 MG assessed as cell viability
- Assay type: toxicity
- test-context: LO2 cells versus U-87 MG cells, read-out: Ratio IC50
quantity: selectivity ratio

CNC(=O)c1ccccc1Nc1nc(Nc2ccc(N3CCN(CCOC(=O)CCCc4ccc(N(CCCl)CCCl)cc4)CC3)cc2)ncc1C(F)(F)F = > 40
CNC(=O)c1ccccc1Nc1nc(Nc2ccc(N3CCN(C)CC3)cc2)ncc1Cl = > 40

Now consider the entry below.
Recorded selectivity ratio (compound CNC(=O)c1ccccc1Nc1nc(Nc2ccc(N3CCN(CCOC(=O)c4ccc(N(CCCl)CCCl)cc4)CC3)cc2)ncc1C(F)(F)F ): > 40

====

- system-name: Focal adhesion kinase 1 (Homo sapiens, UniProt Q05397)
- protocol-description: Inhibition of FAK (unknown origin) at 50 nM relative to control
quantity: inhibition (%)
Give bare numbers, in %.

These solved cases illustrate the format of a correct answer.
CNC(=O)c1ccccc1Nc1nc(Nc2ccc(N3CCN(CCOC(=O)c4ccc(N(CCCl)CCCl)cc4)CC3)cc2)ncc1C(F)(F)F = 96.4
CNC(=O)c1ccccc1Nc1nc(Nc2ccc(N3CCN(C)CC3)cc2)ncc1Cl = 80.2
CNC(=O)c1ccccc1Nc1nc(Nc2ccc(N3CCN(CCOC(=O)CCCc4ccc(N(CCCl)CCCl)cc4)CC3)cc2)ncc1C = 97.5
CNC(=O)c1ccccc1Nc1nc(Nc2ccc(N3CCN(CCOC(=O)CCCc4ccc(N(CCCl)CCCl)cc4)CC3)cc2)ncc1[N+](=O)[O-] = 75.4
O=C(O)CCCc1ccc(N(CCCl)CCCl)cc1 = 8.54

Here are 2 compounds. What values of inhibition were reported for them?
1. CNC(=O)c1ccccc1Nc1nc(Nc2ccc(N3CCN(C(=O)CCCc4ccc(N(CCCl)CCCl)cc4)CC3)cc2OC)ncc1Cl
2. CNC(=O)c1ccccc1Nc1nc(Nc2ccc(C3CCN(C(=O)c4ccc(N(CCCl)CCCl)cc4)CC3)cc2)ncc1Cl

[A]
[67.3, 58.6]

Here are 2 compounds. What values of inhibition were reported for them?
1. CNC(=O)c1ccccc1Nc1nc(Nc2ccc(N3CCN(CCOC(=O)CCCc4ccc(N(CCCl)CCCl)cc4)CC3)cc2)ncc1Br
2. CNC(=O)c1ccccc1Nc1nc(Nc2ccc(N3CCN(CCO)CC3)cc2)ncc1Cl

[A]
1: 94.2; 2: 77.9

====

- Test system: U-87 MG
- protocol-description: Antiproliferative activity against human U-87 MG assessed as cell viability incubated for 48 hrs by MTT assay
- Type: functional, cell-based, U-87MG ATCC
Mark Satisfied only for IC50 values smaller than 600 nM; exact matches and larger values are Not satisfied.

[Q] Check if IC50 falls below 600 nM for CNC(=O)c1ccccc1Nc1nc(Nc2ccc(C3CCN(C(=O)CCCc4ccc(N(CCCl)CCCl)cc4)CC3)cc2)ncc1Cl .
[A] Not satisfied

[Q] Check if IC50 falls below 600 nM for CNC(=O)c1ccccc1Nc1nc(Nc2ccc(N3CCN(CCO)CC3)cc2)ncc1Cl .
[A] Satisfied

[Q] Check if IC50 falls below 600 nM for CNC(=O)c1ccccc1Nc1nc(Nc2ccc(N3CCNCC3)cc2)ncc1Cl .
[A] Satisfied

====

So I've got a bunch of compounds here, and I need their pIC50 values.
- system-name: Focal adhesion kinase 1 (Homo sapiens)
Numbers only, as −log10 of the molar value.

CNC(=O)c1ccccc1Nc1nc(Nc2ccc(N3CCN(CCOC(=O)CCCc4ccc(N(CCCl)CCCl)cc4)CC3)cc2)ncc1C(F)(F)F = 9.09
CNC(=O)c1ccccc1Nc1nc(Nc2ccc(N3CCN(CCOC(=O)c4ccc(N(CCCl)CCCl)cc4)CC3)cc2)ncc1C(F)(F)F = 8.37

Recorded pIC50 (compound CNC(=O)c1ccccc1Nc1nc(Nc2ccc(N3CCN(C)CC3)cc2)ncc1Cl ): 8.49

====

- system-name: Focal adhesion kinase 1 (Homo sapiens)
- protocol-description: Inhibition of FAK (unknown origin) at 10 nM relative to control
Label false (0) if inhibition falls below 60%; label true (1) in every other case.

Here's what some known entries look like.
CNC(=O)c1ccccc1Nc1nc(Nc2ccc(C3CCN(C(=O)CCCc4ccc(N(CCCl)CCCl)cc4)CC3)cc2)ncc1Cl = false (0)
CNC(=O)c1ccccc1Nc1nc(Nc2ccc(N3CCN(C(=O)CCCc4ccc(N(CCCl)CCCl)cc4)CC3)cc2OC)ncc1Cl = false (0)
CNC(=O)c1ccccc1Nc1nc(Nc2ccc(N3CCN(C(=O)c4ccc(N(CCCl)CCCl)cc4)CC3)cc2OC)ncc1Cl = false (0)
CNC(=O)c1ccccc1Nc1nc(Nc2ccc(N3CCOCC3)cc2OC)ncc1Cl = true (1)
O=C(O)CCCc1ccc(N(CCCl)CCCl)cc1 [CHLORAMBUCIL] = false (0)

[Q] Check the entry CNC(=O)c1ccccc1Nc1nc(Nc2ccc(N3CCN(CCOC(=O)c4ccc(N(CCCl)CCCl)cc4)CC3)cc2)ncc1C(F)(F)F : does inhibition equal or exceed 60%?
[A] true (1)

[Q] Check the entry CNC(=O)c1ccccc1Nc1nc(Nc2ccc(N3CCN(CCOC(=O)CCCc4ccc(N(CCCl)CCCl)cc4)CC3)cc2)ncc1[N+](=O)[O-] : does inhibition equal or exceed 60%?
[A] false (0)

[Q] Check the entry CNC(=O)c1ccccc1Nc1nc(Nc2ccc(N3CCNCC3)cc2)ncc1Cl : does inhibition equal or exceed 60%?
[A] true (1)

====

- Tested on: U-251
- protocol-description: Antiproliferative activity against human U-251 assessed as cell viability incubated for 48 hrs by MTT assay
- Assay type: functional, cell-based
- test-context: U-251, 48 h
quantity: IC50

These solved cases illustrate the format of a correct answer.
CNC(=O)c1ccccc1Nc1nc(Nc2ccc(N3CCN(C(=O)c4ccc(N(CCCl)CCCl)cc4)CC3)cc2OC)ncc1Cl = > 50 µM
CNC(=O)c1ccccc1Nc1nc(Nc2ccc(N3CCN(C(=O)CCCc4ccc(N(CCCl)CCCl)cc4)CC3)cc2OC)ncc1Cl = > 50 µM
CNC(=O)c1ccccc1Nc1nc(Nc2ccc(C3CCN(C(=O)c4ccc(N(CCCl)CCCl)cc4)CC3)cc2)ncc1Cl = > 50 µM

Now consider the entry below.
Recorded IC50 (compound O=C(O)CCCc1ccc(N(CCCl)CCCl)cc1 ): > 50 µM

====

- Tested on: U-87 MG
- protocol-description: Antiproliferative activity against human U-87 MG assessed as cell viability incubated for 48 hrs by MTT assay
- Type: functional, cell-based, U-87MG ATCC
pIC50: −log10 of the molar value.
Label not satisfied if pIC50 falls below 7; label satisfied in every other case.

CNC(=O)c1ccccc1Nc1nc(Nc2ccc(N3CCN(CCOC(=O)CCCc4ccc(N(CCCl)CCCl)cc4)CC3)cc2)ncc1[N+](=O)[O-] = not satisfied
CNC(=O)c1ccccc1Nc1nc(Nc2ccc(N3CCN(C(=O)CCCc4ccc(N(CCCl)CCCl)cc4)CC3)cc2)ncc1Cl = not satisfied

[Q] Check the entry CNC(=O)c1ccccc1Nc1nc(Nc2ccc(N3CCN(CCOC(=O)CCCc4ccc(N(CCCl)CCCl)cc4)CC3)cc2)ncc1C(F)(F)F : does pIC50 equal or exceed 7?
[A] satisfied

[Q] Check the entry CNC(=O)c1ccccc1Nc1nc(Nc2ccc(N3CCN(C(=O)c4ccc(N(CCCl)CCCl)cc4)CC3)cc2OC)ncc1Cl : does pIC50 equal or exceed 7?
[A] not satisfied

[Q] Check the entry CNC(=O)c1ccccc1Nc1nc(Nc2ccc(N3CCN(C(=O)c4ccc(N(CCCl)CCCl)cc4)CC3)cc2)ncc1Cl : does pIC50 equal or exceed 7?
[A] not satisfied

[Q] Check the entry CNC(=O)c1ccccc1Nc1nc(Nc2ccc(C3CCN(C(=O)c4ccc(N(CCCl)CCCl)cc4)CC3)cc2)ncc1Cl : does pIC50 equal or exceed 7?
[A] not satisfied

[Q] Check the entry CNC(=O)c1ccccc1Nc1nc(Nc2ccc(N3CCN(CCOC(=O)c4ccc(N(CCCl)CCCl)cc4)CC3)cc2)ncc1Cl : does pIC50 equal or exceed 7?
[A] not satisfied
